Cited source for all entries: patent US10202343B2

# study-target: MIF-CD74 Binding (biotin-labeled recombinant human MIF, recombinant human MIF receptor CD74 ectodomain) (Homo sapiens)
# Sequence (P14174 2-115 limits assumed): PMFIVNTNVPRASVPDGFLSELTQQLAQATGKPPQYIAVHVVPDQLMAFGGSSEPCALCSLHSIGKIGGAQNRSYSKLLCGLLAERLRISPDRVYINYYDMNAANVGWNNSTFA
# assay-info: MIF-CD74 binding (capture) assay
# setup-conditions: Table 4; number before @
Reported CD74 % MaxInhib is given for each of the following molecules.
// note: answer is a bare numeric in %

Known CD74 % MaxInhib results, listed for orientation:
Cc1ccc2c(c1)oc(=O)n2Cc1ccccc1 [Compound 2, 3-benzyl-6-methyl-3H-benzooxazol-2-one]: 25
COc1cccc(Cn2c(=O)oc3ccc(CO)cc32)c1 [Compound 4]: 27

Recorded CD74 % MaxInhib of COc1cccc(Cn2c(=O)oc3ccc(C)cc32)c1 [Compound 5] , please. 42

Then this molecule: O=c1oc2cc(O)ccc2n1Cc1ccccc1 [Compound 14] 22
